System: HT-29 cells
Test: Cell proliferation assay (CellTiter Glo), HT-29
Format: cell-based
Details: Homo sapiens, HT-29, 72 h, read-out: HT-29 IC50
pIC50: −log10 of the molar value.
metric: pIC50

Field: example entries. Status: answers known.
CC1(C)C(=O)N(c2ccc(C#N)c(C(F)(F)F)c2)C(=S)N1c1ccc(C(=O)NCCCCCC(=O)N2CCN(C(=O)c3cc(Cc4n[nH]c(=O)c5ccccc45)ccc3F)CC2)c(F)c1 [Compound 1.1] | 6.52
C[C@](O)(CS(=O)(=O)c1ccc(NCCCCCC(=O)N2CCN(C(=O)c3cc(Cc4n[nH]c(=O)c5ccccc45)ccc3F)CC2)cc1)C(=O)Nc1ccc(C#N)c(C(F)(F)F)c1 [Compound 1.68] | < 5.00
C[C@](O)(COc1ccc(NCCCCCC(=O)N2CCN(C(=O)c3cc(Cc4n[nH]c(=O)c5ccccc45)ccc3F)CC2)cc1)C(=O)Nc1ccc(C#N)c(C(F)(F)F)c1 [Compound 1.83] | < 5.00
CC(O)(CS(=O)(=O)c1ccc(NCCn2cc(CN3CCN(C(=O)c4cc(Cc5n[nH]c(=O)c6ccccc56)ccc4F)CC3)nn2)cc1)C(=O)Nc1ccc(C#N)c(C(F)(F)F)c1 (stereo in doubt) [Compound 1.97] | < 4.52
C[C@]12CCC(=O)C[C@@H]1CC[C@@H]1[C@@H]2CC[C@]2(C)[C@@H](OCCCCCC(=O)N3CCN(C(=O)c4cc(Cc5n[nH]c(=O)c6ccccc56)ccc4F)CC3)CC[C@@H]12 [Compound 1.2] | < 5.00

Shifting focus to the compound that follows.
IN: GET /values?readout=pIC50&item= CC1(C)C(=O)N(c2ccc(C#N)c(C(F)(F)F)c2)C(=S)N1c1ccc(C(=O)NCCCCCCNCc2ccc(-c3[nH]c4cc(F)cc5c4c3CCNC5=O)cc2)c(F)c1 [Compound 1.5]
OUT: 5.30
